study target: UniProtKB Q8N884
assay name: hcGAS LCMS assay (direct measurement of cGAMP production by LC/MS)
Type: biochemical
assay context: 4 h incubation with enzyme and substrates; cGAMP production by LC/MS; class symbols; read-out: hcGAS LCMS IC50
Measured IC50 accompanies every entry in the list below.

Illustrative cases are given below, each with its answer.
COCCOc1c(-c2c(C#N)cccc2CO)cc(C(=O)Nc2nnc(-n3nccc3N)s2)oc1=O [Compound 48]: 0.5 to 1 nM
COc1cccc(OC)c1-c1cc(C(=O)Nc2nnc(-n3nccc3N)s2)oc(=O)c1O[C@H](CO)CN1CCSCC1 [81A*]: 1 to 5 nM
COc1cccnc1-c1cc(C(=O)Nc2nnc(-n3nccc3N)s2)oc(=O)c1O[C@@H](C)CO [Compound 107A]: 1 to 5 nM
COCCCOc1c(-c2ncccc2OC)cc(C(=O)Nc2nnc(-n3nccc3N)s2)oc1=O [Compound 21]: 1 to 5 nM
COc1cccc(OC)c1-c1cc(C(=O)Nc2nnc(-n3nccc3N)s2)oc(=O)c1OCCN1CCCCC1 [Compound 69]: 5 to 20 nM
COCCOc1c(-c2c(C#N)cccc2OC)cc(C(=O)Nc2nnc(-n3nccc3N)s2)oc1=O [Compound 8]: 0.5 to 1 nM
COc1cccc(OC)c1-c1cc(C(=O)Nc2nnc(-n3nccc3N)s2)oc(=O)c1OC[C@@H](CO)N1CCSCC1 [79A*]: 1 to 5 nM
COc1cccc(OC)c1-c1cc(C(=O)Nc2nnc(-n3nccc3N)s2)oc(=O)c1OCCN1CCO[C@@H](CSC)C1 [82B*]: 0.5 to 1 nM
COCCOc1c(-c2c(C#N)cccc2OC(F)F)cc(C(=O)Nc2nnc(-n3nccc3N)s2)oc1=O [Compound 74]: 0.5 to 1 nM
COC[C@@H](O)COc1c(-c2c(OC)cccc2OC)cc(C(=O)Nc2nnc(-n3nccc3N)s2)oc1=O (single isomer, unassigned) [Compound 63B*]: 0.5 to 1 nM

Input line: Name the reported IC50 value associated with the molecule COCC(CN1CCSCC1)Oc1c(-c2c(OC)cccc2OC)cc(C(=O)Nc2nnc(-n3nccc3N)s2)oc1=O (stereo not shown) [78A*/78B*]
Output line: 5 to 20 nM

Input line: What IC50 value was documented for this molecule, COc1cccc(OC)c1-c1cc(C(=O)Nc2nnc(-n3nccc3N)s2)oc(=O)c1O[C@@H]1CC[C@H](O)C1 (relative stereo) [64C*/D*] ?
Output line: 0.5 to 1 nM

Input line: Value lookup for IC50; key = COCCOc1c(-c2c(C#N)cccc2OC)cc(C(=O)Nc2nnc(-n3nccc3C(F)F)s2)oc1=O [Compound 23]
Output line: 0.5 to 1 nM

* * *

study target: hcGAS (Homo sapiens)
Sequence (Q8N884 whole entry): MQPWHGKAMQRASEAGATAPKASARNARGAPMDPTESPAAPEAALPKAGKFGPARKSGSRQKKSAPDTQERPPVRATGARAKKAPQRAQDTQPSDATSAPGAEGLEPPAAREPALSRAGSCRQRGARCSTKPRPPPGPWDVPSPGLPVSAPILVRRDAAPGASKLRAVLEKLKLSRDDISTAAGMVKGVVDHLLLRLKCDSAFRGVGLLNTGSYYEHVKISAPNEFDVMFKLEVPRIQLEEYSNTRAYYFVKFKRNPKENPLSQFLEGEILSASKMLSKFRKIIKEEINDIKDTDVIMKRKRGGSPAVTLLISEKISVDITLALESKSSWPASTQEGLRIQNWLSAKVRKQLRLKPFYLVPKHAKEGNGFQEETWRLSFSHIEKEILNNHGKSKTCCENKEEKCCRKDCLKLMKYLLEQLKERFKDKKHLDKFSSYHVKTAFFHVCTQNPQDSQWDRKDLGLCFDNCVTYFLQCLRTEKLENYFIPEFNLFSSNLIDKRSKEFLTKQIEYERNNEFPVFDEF
assay name: hcGAS LCMS assay (direct measurement of cGAMP production by LC/MS)
Type: biochemical
assay context: 4 h incubation with enzyme and substrates; cGAMP production by LC/MS; class symbols; read-out: hcGAS LCMS IC50
pIC50: −log10 of the molar value.
Collected pIC50 values appear next to each entry.

COc1cccnc1-c1cc(C(=O)Nc2nnc(-n3nccc3N)s2)oc(=O)c1OCCOC(F)F: 8.30 to 9.00
COCCOc1c(-c2c(OC)cncc2OC)cc(C(=O)Nc2nnc(-n3nccc3N)s2)oc1=O: 8.30 to 9.00
COc1cccnc1-c1cc(C(=O)Nc2nnc(-n3nccc3N)s2)oc(=O)c1O[C@H]1CCC[C@@H](OC)C1 (single isomer, unassigned) [113C*]: ≤ 7.22
COc1cccc(OC)c1-c1cc(C(=O)Nc2nnc(-n3nccc3N)s2)oc(=O)c1O[C@H]1CCOC1 [52A*]: > 9.30
COc1cccc(OC)c1-c1cc(C(=O)Nc2nnc(-n3nccc3N)s2)oc(=O)c1OCCCN1CCSCC1: 9.00 to 9.30
COc1cccc(OC)c1-c1cc(C(=O)Nc2nnc(-n3nccc3N)s2)oc(=O)c1O[C@H]1CC[C@H](O)CC1 [Compound 108A]: > 9.30
COc1cccc(OC)c1-c1cc(C(=O)Nc2nnc(-n3nccc3N)s2)oc(=O)c1O[C@H]1CCC[C@@H]1O (single isomer, unassigned) [71A*]: 9.00 to 9.30
COc1cccc(OC)c1-c1cc(C(=O)Nc2nnc(-n3nccc3N)s2)oc(=O)c1O[C@@H]1CC[C@@H](O)C1 (relative stereo) [64A*/B*]: 9.00 to 9.30
COCCOc1c(-c2ncccc2OC)cc(C(=O)Nc2nnc(-n3nccc3N)s2)oc1=O: 8.30 to 9.00

Here is the next item to consider.
Input line: What measured pIC50 goes with COc1cccc(OC)c1-c1cc(C(=O)Nc2nnc(-n3nccc3N)s2)oc(=O)c1OCCN1CCSCC1 ?
Output line: > 9.30

Origin of values: patent US20260327221A1
